This collection of values is drawn from patent US20030186281A1.

tested on: tet operator sequence; assay: β-galactosidase activity of a tetracycline-regulated promoter in transformed E. coli with revTetR, in the presence and absence of anhydrotetracycline (atc); type: cell-based, Escherichia coli; conditions: RevTetR isolate cultured in the absence of anhydrotetracycline (ATC)
Reported endpoint: β-Galactosidase Activity, Cultured Without ATC
One number for each entry.

Sample answers from the record:
Data point: TetRrev4/6-25: revTetR(BD) I59S L60L R62G D95A V99L (protein, Modified tetracycline repressor, revTetR(BD) I59S L60L R62G D95A V99L) MSRLDKSKVINSALELLNEVGIEGLTTRKLAQKLGVEQPTLYWHVKNKRALLDALAVESLAGHHDYSLPAAGESWQSFLRNNAMSFRRALLRYRAGAKLHLGTRPDEKQYDTVETQLRFMTENGFSLRDGLYAISAVSHFTLGAVLEQQEHTAALTDRPAAPDENLPPLLREALQIMDSDDGEQAFLHGLESLIRGFEVQLTALLQIV ; β-Galactosidase Activity, Cultured Without ATC = 102.926

Data point: TetRrev96/99-17: revTetR(BD) G96T V99K (protein, Modified tetracycline repressor, revTetR(BD) G96T V99K) MSRLDKSKVINSALELLNEVGIEGLTTRKLAQKLGVEQPTLYWHVKNKRALLDALAVEILARHHDYSLPAAGESWQSFLRNNAMSFRRALLRYRDTAKKHLGTRPDEKQYDTVETQLRFMTENGFSLRDGLYAISAVSHFTLGAVLEQQEHTAALTDRPAAPDENLPPLLREALQIMDSDDGEQAFLHGLESLIRGFEVQLTALLQIV ; β-Galactosidase Activity, Cultured Without ATC = 92.9198

Data point: TetRrevAF1/11: revTetR(BD) L14I V20V I22L R94H A97A V99E (protein, Modified tetracycline repressor, revTetR(BD) L14I V20V I22L R94H A97A V99E) MSRLDKSKVINSAIELLNEVGLEGLTTRKLAQKLGVEQPTLYWHVKNKRALLDALAVEILARHHDYSLPAAGESWQSFLRNNAMSFRRALLRYHDGAKEHLGTRPDEKQYDTVETQLRFMTENGFSLRDGLYAISAVSHFTLGAVLEQQEHTAALTDRPAAPDENLPPLLREALQIMDSDDGEQAFLHGLESLIRGFEVQLTALLQIV ; β-Galactosidase Activity, Cultured Without ATC = 96.2362

Data point: TetRrevAF6/12: revTetR(BD) L14F E15E G96V K98E V99L L101P (protein, Modified tetracycline repressor, revTetR(BD) L14F E15E G96V K98E V99L L101P) MSRLDKSKVINSAFELLNEVGIEGLTTRKLAQKLGVEQPTLYWHVKNKRALLDALAVEILARHHDYSLPAAGESWQSFLRNNAMSFRRALLRYRDVAELHPGTRPDEKQYDTVETQLRFMTENGFSLRDGLYAISAVSHFTLGAVLEQQEHTAALTDRPAAPDENLPPLLREALQIMDSDDGEQAFLHGLESLIRGFEVQLTALLQIV ; β-Galactosidase Activity, Cultured Without ATC = 82.6734

Data point: TetRrev6-37-1: revTetR(BD) G96R A97S V99L (protein, Modified tetracycline repressor, revTetR(BD) G96R A97S V99L) MSRLDKSKVINSALELLNEVGIEGLTTRKLAQKLGVEQPTLYWHVKNKRALLDALAVEILARHHDYSLPAAGESWQSFLRNNAMSFRRALLRYRDRSKLHLGTRPDEKQYDTVETQLRFMTENGFSLRDGLYAISAVSHFTLGAVLEQQEHTAALTDRPAAPDENLPPLLREALQIMDSDDGEQAFLHGLESLIRGFEVQLTALLQIV ; β-Galactosidase Activity, Cultured Without ATC = 55.277

Lab note: each molecule below needs its β-Galactosidase Activity, Cultured Without ATC filled in.
1. TetRrevAD1/6: revTetR(BD) N18Y E23V D53A A54S L55L A56S A61T H63Y (protein, Modified tetracycline repressor, revTetR(BD) N18Y E23V D53A A54S L55L A56S A61T H63Y) MSRLDKSKVINSALELLYEVGIVGLTTRKLAQKLGVEQPTLYWHVKNKRALLASLSVEILTRYHDYSLPAAGESWQSFLRNNAMSFRRALLRYRDGAKVHLGTRPDEKQYDTVETQLRFMTENGFSLRDGLYAISAVSHFTLGAVLEQQEHTAALTDRPAAPDENLPPLLREALQIMDSDDGEQAFLHGLESLIRGFEVQLTALLQIV
2. TetRrev28/27: revTetR(BD) L17G I22M (protein, Modified tetracycline repressor, revTetR(BD) L17G I22M) MSRLDKSKVINSALELGNEVGMEGLTTRKLAQKLGVEQPTLYWHVKNKRALLDALAVEILARHHDYSLPAAGESWQSFLRNNAMSFRRALLRYRDGAKVHLGTRPDEKQYDTVETQLRFMTENGFSLRDGLYAISAVSHFTLGAVLEQQEHTAALTDRPAAPDENLPPLLREALQIMDSDDGEQAFLHGLESLIRGFEVQLTALLQIV
3. TetRrevAF4/13: revTetR(BD) A13A E15D L17L E19V I22I E23K R94H G95N (protein, Modified tetracycline repressor, revTetR(BD) A13A E15D L17L E19V I22I E23K R94H G95N) MSRLDKSKVINSALDLLNVVGIKGLTTRKLAQKLGVEQPTLYWHVKNKRALLDALAVEILARHHDYSLPAAGESWQSFLRNNAMSFRRALLRYHNGAKVHLGTRPDEKQYDTVETQLRFMTENGFSLRDGLYAISAVSHFTLGAVLEQQEHTAALTDRPAAPDENLPPLLREALQIMDSDDGEQAFLHGLESLIRGFEVQLTALLQIV

1: 85.6043; 2: 95.0152; 3: 98.8886
